Experiment: MTT reduction cytotoxicity assay
Format: cell-based, mouse
Conditions: mouse, L929 cells (mouse fibroblasts), 50 μg/mL, read-out: mean percentage of viable cells ± SD
readout type: viability at 24 h, 50 μg/mL (%)
Quick reminder: number only, in %, skip the unit.

Recorded viability at 24 h, 50 μg/mL, per entry:
[ask] Supply recorded viability at 24 h, 50 μg/mL for CC1CC(=O)OC(c2ccccc2)C1Br (stereo not shown) here.
[reply] 2

[ask] Supply recorded viability at 24 h, 50 μg/mL for CC1CC(=O)OC(c2cccc3ccccc23)C1Br (stereo not shown) here.
[reply] 1

[ask] Supply recorded viability at 24 h, 50 μg/mL for C[C@@H]1CC(=O)O[C@H](c2cccc3ccccc23)[C@H]1Cl (relative stereo) here.
[reply] 1

[ask] Supply recorded viability at 24 h, 50 μg/mL for C[C@@H]1CC(=O)O[C@@H]1[C@@H](O)c1cccc2ccccc12 [13a] here.
[reply] 1

Continuing:
[ask] Supply recorded viability at 24 h, 50 μg/mL for CC1CC(=O)OC(c2ccccc2)C1Cl (stereo not shown) here.
[reply] 1

[ask] Supply recorded viability at 24 h, 50 μg/mL for CC1CC(=O)OC(c2ccccc2)C1I (stereo not shown) here.
[reply] 1

[ask] Supply recorded viability at 24 h, 50 μg/mL for C[C@@H]1CC(=O)O[C@H]1[C@@H](O)c1cccc2ccccc12 (mixture of isomers) [12a] here.
[reply] 2
